Assignment: determine reported Ki range for both μ and σ1 (dual-binding class) for the given molecules.
Molecular target: σ1 receptor and the μ-opiod receptor
Experiment: μ and σ1 dual binding: combined class from the Ki of both radioligand assays
Set-up: species or system human
Settings: transfected HEK-293 membranes (σ1), transfected CHO-K1 cell membranes (μ)

I have 6 molecules here; please give me Ki range for both μ and σ1 (dual-binding class) for each one.
1. Oc1cccc(C2CCN(Cc3cn(-c4ncccc4C(F)(F)F)nn3)CC2)c1
2. Fc1ccc(Nc2cccc(C3CCN(Cc4cn(Cc5ccccn5)nn4)CC3)c2)nc1
3. Oc1cccc(C2CCN(Cc3cn(-c4ccccc4F)nn3)CC2)c1
4. Oc1cccc(C2CCN(Cc3cn([C@@H]4CCCC[C@H]4O)nn3)CC2)c1
5. Oc1cccc(C2CCN(Cc3cn(Cc4ccncc4)nn3)CC2)c1
6. Oc1cccc(C2CCN(Cc3cn(-c4cc(C(F)(F)F)ccn4)nn3)CC2)c1

Output:
< 500 nM
< 500 nM
< 100 nM
< 500 nM
< 500 nM
< 500 nM

---

Answer each item with its documented Ki range for both μ and σ1 (dual-binding class).
Target: σ1 receptor and the μ-opiod receptor
Assay: μ and σ1 dual binding: combined class from the Ki of both radioligand assays
Parameters: species or system human
Settings: transfected HEK-293 membranes (σ1), transfected CHO-K1 cell membranes (μ)

Worked examples, 4 compounds total:
compound	subject_of_test	endpoint_result
COc1cccc(Cn2cc(CN3CCC(c4cccc(NS(=O)(=O)C(C)C)c4)CC3)nn2)n1	σ1 receptor and the μ-opiod receptor	< 100 nM
Oc1cccc(C2CCN(Cc3cn([C@@H]4c5ccccc5C[C@H]4O)nn3)CC2)c1 [Example 15]	σ1 receptor and the μ-opiod receptor	< 500 nM
NS(=O)(=O)c1cccc(C2CCN(Cc3cn(-c4ccccc4)nn3)CC2)c1	σ1 receptor and the μ-opiod receptor	≥ 500 nM
CS(=O)(=O)Nc1cccc(C2CCN(Cc3cn(-c4cccc(F)c4)nn3)CC2)c1	σ1 receptor and the μ-opiod receptor	< 100 nM

State recorded Ki range for both μ and σ1 (dual-binding class) for all listed compounds.
1. Oc1cccc(C2CCN(Cc3cn(Cc4cccc(F)c4)nn3)CC2)c1
2. Oc1cccc(C2CCN(Cc3cn(-c4ccccn4)nn3)CC2)c1
3. Oc1ccc(Cn2cc(CN3CCC(c4cccc(O)c4)CC3)nn2)nc1
4. Oc1cccc(C2CCN(Cc3cc(Cc4ccccc4)no3)CC2)c1
5. CS(=O)(=O)Nc1cc(C2CCN(Cc3cn(-c4ccccc4)nn3)CC2)ccn1
6. CS(=O)(=O)Nc1cccc(C2CCN(Cc3cn(-c4ccccc4)nn3)CC2)c1F
7. Oc1cccc(C2CCN(Cc3cc(-c4ccccc4)no3)CC2)c1
8. Oc1cccc(C2CCN(Cc3cn(-c4ccc(F)cc4F)nn3)CC2)c1

Output:
["< 100 nM", "< 100 nM", "≥ 500 nM", "< 100 nM", "≥ 500 nM", "< 100 nM", "< 100 nM", "< 100 nM"]

---

Target: σ1 receptor and the μ-opiod receptor
Assay: μ and σ1 dual binding: combined class from the Ki of both radioligand assays
Design: species or system human
Conditions: transfected HEK-293 membranes (σ1), transfected CHO-K1 cell membranes (μ)
measured_quantity: Ki range for both μ and σ1 (dual-binding class)

CS(=O)(=O)Nc1cc(C2CCN(Cc3cn(-c4ccccc4)nn3)CC2)ccc1F < 500 nM
Oc1cccc(C2CCN(Cc3cn(C4CCC(F)(F)CC4)nn3)CC2)c1 < 100 nM
Oc1cccc(C2CCN(Cc3cn(-c4ncccc4F)nn3)CC2)c1 < 500 nM
CS(=O)(=O)Nc1cccc(C2CCN(Cc3cn(-c4ccc(F)cc4)nn3)CC2)c1 < 500 nM
c1ccc(-n2cc(CN3CCC(c4cccc5[nH]ncc45)CC3)nn2)cc1 < 500 nM
CC(=O)Nc1cc(F)cc(C2CCN(Cc3cn(-c4ccccc4)nn3)CC2)c1 < 500 nM
Cc1nnc(-c2cccc(C3CCN(Cc4cn(-c5ccccc5)nn4)CC3)c2)o1 < 500 nM
CS(=O)(=O)Nc1ccc(F)c(C2CCN(Cc3cn(Cc4ccccc4)nn3)CC2)c1 < 500 nM

Please state, for each entry, its recorded Ki range for both μ and σ1 (dual-binding class).
1. Nc1cccc(C2CCN(Cc3cn(-c4ccccc4)nn3)CC2)c1
2. Oc1cccc(C2CCN(Cc3cn([C@H]4c5ccccc5C[C@@H]4O)nn3)CC2)c1
3. Oc1cccc(C2CCN(CCc3cn(-c4ccccc4)nn3)CC2)c1
4. Oc1cccc(C2CCN(Cc3cn([C@@H]4Cc5ccccc5[C@H]4F)nn3)CC2)c1
5. Oc1ccc(F)c(C2CCN(Cc3cn(Cc4ccccn4)nn3)CC2)c1
6. Oc1cccc(C2CCN(Cc3cn(Cc4ccccc4)cn3)CC2)c1
7. Oc1cccc(C2CCN(Cc3cn(Cc4cc(C(F)(F)F)ccn4)nn3)CC2)c1
8. N#Cc1ccc(Cn2cc(CN3CCC(c4cccc(O)c4)CC3)nn2)cc1

Output:
1. < 100 nM
2. < 500 nM
3. < 100 nM
4. < 100 nM
5. < 500 nM
6. < 100 nM
7. < 100 nM
8. < 100 nM

Field: Ki range for both μ and σ1 (dual-binding class). Fill in for each record below.
1. Oc1cccc(C2CCN(Cc3cn(Cc4ncccc4Cl)nn3)CC2)c1
2. Oc1cccc(C2CCN(Cc3cn(-c4ccc(F)cc4)nn3)CC2)c1
3. CNS(=O)(=O)c1cccc(C2CCN(Cc3cn(Cc4ccccn4)nn3)CC2)c1
4. CCNC(=O)Nc1cccc(C2CCN(Cc3cn(-c4ccccc4)nn3)CC2)c1
5. CCC(=O)Nc1cccc(C2CCN(Cc3cnn(-c4ccccc4)c3)CC2)n1
6. c1ccc(-n2cc(CN3CCC(c4cccc(Nc5nccs5)c4)CC3)nn2)cc1
7. Oc1cccc(C2CCN(Cc3cn([C@@H]4Cc5ccccc5[C@@H]4F)nn3)CC2)c1
8. Oc1cccc(C2CCN(Cc3cn(C4CCCCC4)nn3)CC2)c1

Output:
< 500 nM
< 100 nM
≥ 500 nM
< 500 nM
< 100 nM
< 100 nM
< 100 nM
< 100 nM

Consider the following items and state reported Ki range for both μ and σ1 (dual-binding class) for each.
1. COc1cccc(-n2cc(CN3CCC(c4cccc(O)c4)CC3)nn2)c1
2. CC(C)S(=O)(=O)Nc1cccc(C2CCN(Cc3cn(-c4ccccc4)nn3)CC2)c1
3. Oc1cccc(C2CCN(Cc3cn(-c4ccccc4)nn3)CC2)n1
4. CC(C)S(=O)(=O)Nc1cccc(C2CCN(Cc3cn(Cc4cccc(F)n4)nn3)CC2)c1

Output:
["< 100 nM", "< 100 nM", "≥ 500 nM", "< 500 nM"]

Below are 7 molecules. Give each one its Ki range for both μ and σ1 (dual-binding class).
1. CS(=O)(=O)Nc1cccc(C2CCN(Cc3cnn(-c4ccccc4)c3)CC2)n1
2. Oc1cccc(C2CCN(Cc3cn(Cc4ccccn4)nn3)CC2)c1
3. CC(C)Cn1cc(CN2CCC(c3cccc(O)c3)CC2)nn1
4. NS(=O)(=O)c1cccc(C2CCN(Cc3cn(Cc4ccccn4)nn3)CC2)c1
5. COc1ccc(-n2cc(CN3CCC(c4cccc(O)c4)CC3)nn2)nc1
6. Oc1cccc(C2CCN(Cc3cn(-c4ccccc4O)nn3)CC2)c1
7. Oc1cccc(C2CCN(Cc3cn(Cc4ccc(Cl)cn4)nn3)CC2)c1

Output:
< 500 nM
< 500 nM
< 100 nM
≥ 500 nM
< 500 nM
< 500 nM
< 100 nM

Input: Find the recorded Ki range for both μ and σ1 (dual-binding class) belonging to Oc1cccc(C2CCN(Cc3cn(Cc4ncccc4F)nn3)CC2)c1 and report it.
Output: < 500 nM

---

Target: σ1 receptor and the μ-opiod receptor
Experiment: μ and σ1 dual binding: combined class from the Ki of both radioligand assays
Design: species or system human
Details: transfected HEK-293 membranes (σ1), transfected CHO-K1 cell membranes (μ)
measured_quantity: Ki range for both μ and σ1 (dual-binding class)

As a guide, the following entries are already answered.
molecule	subject_of_test	endpoint_result
CO[C@@H]1Cc2ccccc2[C@H]1n1cc(CN2CCC(c3cccc(O)c3)CC2)nn1	σ1 receptor and the μ-opiod receptor	< 0.1 µM
Oc1cccc(C2CCN(Cc3cn(-c4cc(F)ccc4F)nn3)CC2)c1	σ1 receptor and the μ-opiod receptor	< 0.1 µM
CC(C)S(=O)(=O)Nc1cccc(C2CCN(Cc3cn(-c4ccccc4)nn3)CC2)n1	σ1 receptor and the μ-opiod receptor	< 0.5 µM

# map each molecule to its Ki range for both μ and σ1 (dual-binding class)
1. Oc1cccc(C2CCN(Cc3cn(Cc4cccc(F)n4)nn3)CC2)c1
2. Oc1cccc(C2CCN(Cc3cnn(Cc4ccc(F)cn4)c3)CC2)c1
3. CS(=O)(=O)Nc1ccc(F)c(C2CCN(Cc3cn(-c4ccccc4)nn3)CC2)c1
4. Oc1cccc(C2CCN(Cc3cn([C@@H]4c5ccccc5C[C@H]4O)nn3)CC2)c1 [Example 78]
5. Cc1ccc2cc(-n3cc(CN4CCC(c5cccc(O)c5)CC4)nn3)ccc2n1
6. OC[C@H](c1ccccc1)n1cc(CN2CCC(c3cccc(O)c3)CC2)nn1 (stereo in doubt)
7. CCC(=O)Nc1cccc(C2CCN(Cc3cc(-c4ccccc4)no3)CC2)n1
8. Oc1cccc(C2CCN(Cc3cn([C@H]4CC[C@@H](C(F)(F)F)CC4)nn3)CC2)c1

Output:
["< 0.5 µM", "< 0.5 µM", "< 0.1 µM", "< 0.5 µM", "< 0.5 µM", "< 0.5 µM", "< 0.5 µM", "< 0.1 µM"]

For every record below, what is its Ki range for both μ and σ1 (dual-binding class)?
1. Oc1cccc(C2CCN(Cc3cn(-c4ccc(C(F)(F)F)cc4F)nn3)CC2)c1
2. CCC(=O)Nc1cccc(C2CCN(Cc3cn(-c4ccccc4)nn3)CC2)c1
3. Oc1cccc(C2CCN(Cc3cn(-c4ccc(F)cn4)nn3)CC2)c1
4. Oc1cccc(C2CCN(Cc3cn(Cc4ncccc4C(F)(F)F)nn3)CC2)c1

Output:
< 0.1 µM
< 0.5 µM
< 0.1 µM
< 0.5 µM

Hello, I would appreciate it if you could give Ki range for both μ and σ1 (dual-binding class) for each entry below.
1. CS(=O)(=O)Nc1cc(C2CCN(Cc3cc(-c4ccccc4)no3)CC2)ccc1F
2. CC(c1ccccn1)n1cc(CN2CCC(c3cccc(O)c3)CC2)nn1 (centres unmarked)

Output:
1. < 0.5 µM
2. < 0.5 µM
